Data origin, for the record: PubChem BioAssay

# target-of-assay: Voltage-gated potassium channel subunit beta-2 (Rattus norvegicus)
# experiment-description: inhibitors of rat Kvbeta2 reductase activity – biochemical, NADPH fluorescence, primary screen (AID 622);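 also: slope of raw intensity against log time taken from 70 to 1610 s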
# particulars: recombinant KvBeta, 4-cyanobenzaldehyde reduction, at 10 µM, stronger effect = higher value
value-type: fluorescence slope

>  <molecule>
COc1ccc(OC)c(C(=O)c2ccc(C(=O)O)cc2)c1

>  <assay-result>
-0.508

$$$$
>  <molecule>
C#CCSc1nc(-c2cccs2)ccc1C#N

>  <assay-result>
-0.5

$$$$
>  <molecule>
Cc1cc(C)c(S(=O)(=O)N(C)CC(N)=O)c(C)c1

>  <assay-result>
-0.489

$$$$
>  <molecule>
COC(=O)Cn1c(CCS(=O)(=O)c2ccc(C)cc2)nc2ccccc21

>  <assay-result>
-0.498

$$$$
>  <molecule>
COc1cc(C2C(C#N)=C(N)OC3=C2C(=O)CC(C)(C)C3)ccc1OC(=O)N1CCOCC1 (stereo not given)

>  <assay-result>
-0.511

$$$$

----------
# experiment-description: reduction of polyQ htt aggregates in cells – imaging, exon1htt(103Q)mCFP cells, high-content imaging, primary screen (AID 483);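 also: compound exposure lasted 3 days before fixation; percent of the per-plate median nuclei count of sample wells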
# particulars: exon1htt(103Q)mCFP cell line, aggregate imaging, at 2 µM; measured here: cell count, toxicity
Listed below: nuclei count values for each entry.
value-type: nuclei count

>  <molecule>
Cc1ccc(S(=O)(=O)CC(=O)N2CCCCCC2)cc1

>  <assay-result>
103%

$$$$
>  <molecule>
CC(C)(C)NC(=O)C(Cc1ccccc1)NS(=O)(=O)c1cccc2nsnc12 (stereo unspecified)

>  <assay-result>
113%

$$$$
>  <molecule>
Nc1nc(CSc2nc3ccccc3[nH]2)nc(N2CCOCC2)n1

>  <assay-result>
87.9%

$$$$
>  <molecule>
CCOc1ccc(NC2c3ccccc3C(=O)N2Cc2ccco2)cc1 (stereo unspecified)

>  <assay-result>
47.6%

$$$$
>  <molecule>
Nn1cc(-c2ccccc2)nc1SCC(=O)N1CCN(S(=O)(=O)c2ccccc2)CC1

>  <assay-result>
102%

$$$$
>  <molecule>
Cc1cccc(OCC(=O)Nc2ccc(N3CCCC3)cc2)c1C

>  <assay-result>
93.1%

$$$$
>  <molecule>
COCCCn1c2nc3ccccc3nc2c2c(=O)n(-c3ccccc3OC)cnc21

>  <assay-result>
98.2%

$$$$
>  <molecule>
COCCCn1c(=N)c(C(=O)NCC2CCCO2)cc2c(=O)n3cccc(C)c3nc21 (stereo unspecified)

>  <assay-result>
78.6%

$$$$
>  <molecule>
Cc1oc2c(CN3CCCC3)c(O)ccc2c(=O)c1-c1ccccc1

>  <assay-result>
96.3%

$$$$
>  <molecule>
CCN1C(=O)/C(=C/N(C)c2ccccc2)OC1=S

>  <assay-result>
84.4%

$$$$
>  <molecule>
CCc1ccc(C(=O)NC2CCCCC2)s1

>  <assay-result>
98.5%

$$$$
>  <molecule>
O=S(=O)(c1ccc2c(c1)nc1n2CCC1)N1CCOCC1

>  <assay-result>
96.3%

$$$$
>  <molecule>
CCOC(=O)N1CCC(NC(=O)c2ccc3c(c2)N(C)CCS3)CC1

>  <assay-result>
113%

$$$$
>  <molecule>
CCOc1cc(C)c(C(C)C)cc1S(=O)(=O)N1CCN(C)CC1

>  <assay-result>
93.4%

$$$$
>  <molecule>
CCCCOc1ccc(C(=O)Nc2ccc(N3CCN(C(=O)C(C)C)CC3)cc2)cc1

>  <assay-result>
92.4%

$$$$
>  <molecule>
O=C(CSc1nc2cc(Cl)ccc2s1)N1CCN(C(=O)c2ccco2)CC1

>  <assay-result>
97.9%

$$$$
>  <molecule>
COc1cccc(C(=O)n2cnnc2N)c1OC

>  <assay-result>
109%

$$$$
>  <molecule>
O=C1CCCCCC1C1(O)C(=O)Nc2ccccc21 (stereo unspecified)

>  <assay-result>
101%

$$$$
>  <molecule>
CCc1cc2c(=O)c(-c3ccc4c(c3)OCCO4)coc2cc1OC(=O)c1ccco1

>  <assay-result>
92.8%

$$$$
>  <molecule>
C=CCNC(=O)c1ccc(Cl)cc1Cl

>  <assay-result>
87.7%

$$$$
>  <molecule>
CCC(OC(=O)c1cccs1)C(=O)NCc1ccco1 (stereo unspecified)

>  <assay-result>
90.1%

$$$$
